assay-target: human FXR (NR1H4) (Homo sapiens (Human))
Sequence (Q96RI1 whole entry): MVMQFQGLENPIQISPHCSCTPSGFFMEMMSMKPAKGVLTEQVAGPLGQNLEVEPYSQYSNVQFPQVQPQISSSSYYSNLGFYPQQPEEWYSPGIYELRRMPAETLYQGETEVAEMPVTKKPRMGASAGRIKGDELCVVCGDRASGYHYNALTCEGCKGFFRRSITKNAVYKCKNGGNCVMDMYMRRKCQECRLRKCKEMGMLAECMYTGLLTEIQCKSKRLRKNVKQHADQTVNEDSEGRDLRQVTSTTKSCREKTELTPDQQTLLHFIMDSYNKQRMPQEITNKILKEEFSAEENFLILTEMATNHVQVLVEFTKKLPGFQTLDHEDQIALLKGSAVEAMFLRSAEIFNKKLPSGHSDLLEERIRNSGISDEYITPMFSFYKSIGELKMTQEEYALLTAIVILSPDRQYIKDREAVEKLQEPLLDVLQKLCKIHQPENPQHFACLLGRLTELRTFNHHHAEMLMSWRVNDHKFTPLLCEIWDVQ
run-description: Human FXR (NR1H4) Assay (luciferase reporter, Indigo Bioscience kit); further: efficacy normalized to CDCA set as 100%
Type: cell-based
test-parameters: read-out: Efficacy (%)

>  <compound>
CC[C@H]1[C@@H](O)[C@@H]2[C@H](CC[C@]3(C)[C@@H]([C@H](C)CCOc4ccc(F)cc4C(=O)O)CC[C@@H]23)[C@@]2(C)CC[C@@H](O)C[C@@H]12 [Example 35]

>  <Emax / %>
203

$$$$
>  <compound>
CC[C@H]1[C@@H](O)[C@@H]2[C@H](CC[C@]3(C)[C@@H]([C@H](C)CCCc4cc(F)c(O)c(F)c4)CC[C@@H]23)[C@@]2(C)CC[C@@H](O)C[C@@H]12 [Example 5]

>  <Emax / %>
271

$$$$
>  <compound>
CC[C@H]1[C@@H](O)[C@@H]2[C@H](CC[C@]3(C)[C@@H]([C@H](C)C/C=C/c4cccc(C(=O)O)c4)CC[C@@H]23)[C@@]2(C)CC[C@@H](O)C[C@@H]12 [Example 22]

>  <Emax / %>
195

$$$$
>  <compound>
CC[C@H]1[C@@H](O)[C@@H]2[C@H](CC[C@]3(C)[C@@H]([C@H](C)CC4CC4c4ccccc4C(=O)O)CC[C@@H]23)[C@@]2(C)CC[C@@H](O)C[C@@H]12 (some centres unmarked) [Example 10]

>  <Emax / %>
252

$$$$
>  <compound>
CC[C@H]1[C@@H](O)[C@@H]2[C@H](CC[C@]3(C)[C@@H]([C@H](C)CCOc4ccccc4C(=O)O)CC[C@@H]23)[C@@]2(C)CC[C@@H](O)C[C@@H]12 [Example 11]

>  <Emax / %>
388

$$$$
